Taken from ChEMBL document CHEMBL3885861.

Organism: Rattus norvegicus
Assay: Open TG-GATES - Regimen: Single
Assay type: toxicity, organism-based, Sprague-Dawley
Set-up: regimen Single, gender Male, age 6 weeks
Conditions: in vivo, po, 300 mg/kg, 9 h, tissue Plasma, route gavage, dose level Middle
Experimental Endpoint: Cl

- NC(N)=Nc1nc(CSCCC(N)=NS(N)(=O)=O)cs1: 103.6 meq/L
- COc1ccc2[nH]c([S+]([O-])Cc3ncc(C)c(OC)c3C)nc2c1 (centres undefined): 101.4 meq/L
- COC1=CC(=O)C[C@@H](C)[C@]12Oc1c(Cl)c(OC)cc(OC)c1C2=O: 103.8 meq/L
- CCOC(=O)CCC(=O)O[C@H]1[C@H](O[C@@H]2[C@@H](C)[C@H](O[C@H]3C[C@@](C)(OC)[C@@H](O)[C@H](C)O3)[C@@H](C)C(=O)O[C@H](CC)[C@@](C)(O)[C@H](O)[C@@H](C)C(=O)[C@H](C)C[C@@]2(C)O)O[C@H](C)C[C@@H]1N(C)C [ERYTHROMYCIN ETHYLSUCCINATE]: 105.2 meq/L

###

Listed here: items and their measured Ret.
Species: Rattus norvegicus
Assay: Open TG-GATES - Regimen: Single
Format: toxicity, organism-based, Sprague-Dawley
Parameters: regimen Single, gender Male, age 6 weeks
Details: in vivo, po, 1000 mg/kg, 9 h, tissue Blood, route gavage, dose level High
Experimental Endpoint: Ret

• COc1ccc2[nH]c([S+]([O-])Cc3ncc(C)c(OC)c3C)nc2c1 (stereo not given) = 6.4%
• CCOC(=O)CCC(=O)O[C@H]1[C@H](O[C@@H]2[C@@H](C)[C@H](O[C@H]3C[C@@](C)(OC)[C@@H](O)[C@H](C)O3)[C@@H](C)C(=O)O[C@H](CC)[C@@](C)(O)[C@H](O)[C@@H](C)C(=O)[C@H](C)C[C@@]2(C)O)O[C@H](C)C[C@@H]1N(C)C [ERYTHROMYCIN ETHYLSUCCINATE] = 7.2%
• CC(C)OC(=O)C(C)(C)Oc1ccc(C(=O)c2ccc(Cl)cc2)cc1 [FENOFIBRATE] = 8.8%
• COC1=CC(=O)C[C@@H](C)[C@]12Oc1c(Cl)c(OC)cc(OC)c1C2=O = 7.7%
• NC(N)=Nc1nc(CSCCC(N)=NS(N)(=O)=O)cs1 = 7.3%

###

Listed here: items and their measured Neu.
Organism: Rattus norvegicus
Experiment: Open TG-GATES - Regimen: Daily Repeat
Assay type: toxicity, organism-based, Sprague-Dawley
Parameters: regimen Daily Repeat, gender Male, age 6 weeks
Settings: in vivo, po, 300 mg/kg, 72 h, tissue Blood, route gavage, dose level Middle, time 3 day
Experimental Endpoint: Neu (%)

• NC(N)=Nc1nc(CSCCC(N)=NS(N)(=O)=O)cs1 = 13.2
• CCOC(=O)CCC(=O)O[C@H]1[C@H](O[C@@H]2[C@@H](C)[C@H](O[C@H]3C[C@@](C)(OC)[C@@H](O)[C@H](C)O3)[C@@H](C)C(=O)O[C@H](CC)[C@@](C)(O)[C@H](O)[C@@H](C)C(=O)[C@H](C)C[C@@]2(C)O)O[C@H](C)C[C@@H]1N(C)C [ERYTHROMYCIN ETHYLSUCCINATE] = 11.8
• COc1ccc2[nH]c([S+]([O-])Cc3ncc(C)c(OC)c3C)nc2c1 (stereo not given) = 14
• COC1=CC(=O)C[C@@H](C)[C@]12Oc1c(Cl)c(OC)cc(OC)c1C2=O = 22.2
• CCOc1ccc(NC(=O)CC(C)O)cc1 (stereo not given) = 21.6

###

Listed here: items and their measured AST.
Species on record: Rattus norvegicus
Test: Open TG-GATES - Regimen: Single
Assay type: toxicity, organism-based, Sprague-Dawley
Design: regimen Single, gender Male, age 6 weeks
Conditions: in vivo, po, 30 mg/kg, 6 h, tissue Plasma, route gavage, dose level Middle
Experimental Endpoint: AST (IU/L)

* CN(C)CCN(Cc1cccs1)c1ccccn1 | 71.2
* CN(C)CCCN1c2ccccc2CCc2ccccc21 [IMIPRAMINE] | 72.8
* CC1=C(/C=C/C(C)=C/C=C/C(C)=C/CO)C(C)(C)CCC1 [RETINOL] | 72.2
* CN(C)CCCN1c2ccccc2CCc2ccc(Cl)cc21 [CLOMIPRAMINE] | 73.8

###

Species on record: Rattus norvegicus
Assay: Open TG-GATES - Regimen: Single
Type: toxicity, organism-based, Sprague-Dawley
Design: regimen Single, gender Male, age 6 weeks
Conditions: in vivo, po, 1000 mg/kg, 6 h, tissue Plasma, route gavage, dose level High
Experimental Endpoint: TG (mg/dL)

• CCOC(=O)CCC(=O)O[C@H]1[C@H](O[C@@H]2[C@@H](C)[C@H](O[C@H]3C[C@@](C)(OC)[C@@H](O)[C@H](C)O3)[C@@H](C)C(=O)O[C@H](CC)[C@@](C)(O)[C@H](O)[C@@H](C)C(=O)[C@H](C)C[C@@]2(C)O)O[C@H](C)C[C@@H]1N(C)C [ERYTHROMYCIN ETHYLSUCCINATE] = 43.4
• COc1ccc2[nH]c([S+]([O-])Cc3ncc(C)c(OC)c3C)nc2c1 (stereo not given) = 57
• NC(N)=Nc1nc(CSCCC(N)=NS(N)(=O)=O)cs1 = 50.8
• CC(C)OC(=O)C(C)(C)Oc1ccc(C(=O)c2ccc(Cl)cc2)cc1 [FENOFIBRATE] = 28.6
• COC1=CC(=O)C[C@@H](C)[C@]12Oc1c(Cl)c(OC)cc(OC)c1C2=O = 45

###

Species: Rattus norvegicus
Assay: Open TG-GATES - Regimen: Single
Assay type: toxicity, organism-based, Sprague-Dawley
Design: regimen Single, gender Male, age 6 weeks
Conditions: in vivo, po, 10 mg/kg, 9 h, tissue Plasma, route gavage, dose level Low
Listed here: items and their measured LDH.
Experimental Endpoint: LDH

- CC1=C(/C=C/C(C)=C/C=C/C(C)=C/CO)C(C)(C)CCC1 [RETINOL]: 242.8 IU/L
- CN(C)CCN(Cc1cccs1)c1ccccn1: 171 IU/L
- CN(C)CCCN1c2ccccc2CCc2ccccc21 [IMIPRAMINE]: 67.6 IU/L
- CN(C)CCCN1c2ccccc2CCc2ccc(Cl)cc21 [CLOMIPRAMINE]: 84.2 IU/L

###

Organism: Rattus norvegicus
Experiment: Open TG-GATES - Regimen: Daily Repeat
Assay type: toxicity, organism-based, Sprague-Dawley
Parameters: regimen Daily Repeat, gender Male, age 6 weeks
Conditions: in vivo, po, 0 mg/kg, 72 h, tissue Plasma, route gavage, dose level Control, time 3 day
Experimental Endpoint: PL

* NC(N)=Nc1nc(CSCCC(N)=NS(N)(=O)=O)cs1 | 139.6 mg/dL
* CCOC(=O)CCC(=O)O[C@H]1[C@H](O[C@@H]2[C@@H](C)[C@H](O[C@H]3C[C@@](C)(OC)[C@@H](O)[C@H](C)O3)[C@@H](C)C(=O)O[C@H](CC)[C@@](C)(O)[C@H](O)[C@@H](C)C(=O)[C@H](C)C[C@@]2(C)O)O[C@H](C)C[C@@H]1N(C)C [ERYTHROMYCIN ETHYLSUCCINATE] | 139.8 mg/dL
* NNC(=O)c1ccncc1 | 163.4 mg/dL
* COC1=CC(=O)C[C@@H](C)[C@]12Oc1c(Cl)c(OC)cc(OC)c1C2=O | 130.6 mg/dL
* CCCNC(=O)NS(=O)(=O)c1ccc(Cl)cc1 [CHLORPROPAMIDE] | 154.6 mg/dL
* CN(C)CCN(Cc1cccs1)c1ccccn1 | 140.6 mg/dL
* O=C(CCCN1CCC(O)(c2ccc(Cl)cc2)CC1)c1ccc(F)cc1 | 166.2 mg/dL
* COc1ccc2[nH]c([S+]([O-])Cc3ncc(C)c(OC)c3C)nc2c1 (configuration not stated) | 144.4 mg/dL
* CC1=C(/C=C/C(C)=C/C=C/C(C)=C/CO)C(C)(C)CCC1 | 145.4 mg/dL
* CN1C(=O)CN=C(c2ccccc2)c2cc(Cl)ccc21 | 154 mg/dL
* CC(C)OC(=O)C(C)(C)Oc1ccc(C(=O)c2ccc(Cl)cc2)cc1 [FENOFIBRATE] | 150.2 mg/dL
* CCOc1ccc(NC(=O)CC(C)O)cc1 (configuration not stated) | 165.2 mg/dL

###

Organism: Rattus norvegicus
Experiment: Open TG-GATES - Regimen: Single
Type: toxicity, organism-based, Sprague-Dawley
Design: regimen Single, gender Male, age 6 weeks
Conditions: in vivo, po, 1000 mg/kg, 3 h, tissue Blood, route gavage, dose level High
Listed here: items and their measured Eos.
Experimental Endpoint: Eos

- CC(C)OC(=O)C(C)(C)Oc1ccc(C(=O)c2ccc(Cl)cc2)cc1 [FENOFIBRATE]: 0.6%
- COC1=CC(=O)C[C@@H](C)[C@]12Oc1c(Cl)c(OC)cc(OC)c1C2=O: 1%
- COc1ccc2[nH]c([S+]([O-])Cc3ncc(C)c(OC)c3C)nc2c1 (stereo not given): 1%
- NC(N)=Nc1nc(CSCCC(N)=NS(N)(=O)=O)cs1: 1%
- CCOC(=O)CCC(=O)O[C@H]1[C@H](O[C@@H]2[C@@H](C)[C@H](O[C@H]3C[C@@](C)(OC)[C@@H](O)[C@H](C)O3)[C@@H](C)C(=O)O[C@H](CC)[C@@](C)(O)[C@H](O)[C@@H](C)C(=O)[C@H](C)C[C@@]2(C)O)O[C@H](C)C[C@@H]1N(C)C [ERYTHROMYCIN ETHYLSUCCINATE]: 1%
